Just for reference, ChEMBL document CHEMBL4689842 is where these values come from.

# Test system: HEK-293T
# PROTOCOL_DETAILS: Multiplex assay against HEK293T
# Assay type: toxicity, cell-based
# APPLIED_CONDITIONS: human, 12 h, 10 µM, compound concentration 10 uM, replicate 1
OBSERVABLE: Population Fragmented Nuclei (%)
Reply with just the number (in %).

# count of solved cases: 4
COMPOUND	OBSERVABLE	MEASUREMENT_UNITS	EXPERIMENTAL_VALUE
C=C1/C(=C\C=C2/CCC[C@]3(C)[C@@H]([C@H](C)/C=C/[C@H](C)C(C)C)CC[C@@H]23)C[C@@H](O)C[C@@H]1O	Population Fragmented Nuclei (%)	%	15
CN1CCN(C(=O)C(C)(C)c2ccc(C(=O)Nc3cn4cc(-c5cc(C(C)(C)C)cc(C(C)(C)C)c5)ccc4n3)cc2)CC1	Population Fragmented Nuclei (%)	%	16
CCOc1cc2ncc(C#N)c(Nc3ccc(OCc4ccccn4)c(Cl)c3)c2cc1NC(=O)/C=C/CN(C)C	Population Fragmented Nuclei (%)	%	25
COc1ccc(-c2ccc3c(N4CCOCC4)nc(N4C[C@@H](C)O[C@@H](C)C4)nc3n2)cc1CO	Population Fragmented Nuclei (%)	%	31

// recorded Population Fragmented Nuclei (%) for COc1cc2ncnc(Nc3ccc(F)c(Cl)c3)c2cc1NC(=O)/C=C/CN1CCCCC1 [DACOMITINIB ANHYDROUS] : 14

Reported Population Fragmented Nuclei (%) for Cc1ccc2nc(NCCN)c3ncc(C)n3c2c1.O=C(O)C(F)(F)F.O=C(O)C(F)(F)F was 13

For this compound ( CNC(=O)c1ccc(Nc2nc(OC3CCCC3)c3c(-c4ccc5nc(C)oc5c4)c[nH]c3n2)c(OC)c1 ), measured Population Fragmented Nuclei (%) is 19

---

# Test system: U2OS
# PROTOCOL_DETAILS: Multiplex assay against U2OS
# Assay type: toxicity, cell-based
# APPLIED_CONDITIONS: human, 24 h, 10 µM, compound concentration 10 uM, replicate 1
OBSERVABLE: Population Mitotic Cells (%)
Respond with the bare value in %.

COMPOUND	EXPERIMENTAL_VALUE
CCN(CC)S(=O)(=O)Nc1cccc(-c2ccc3c(NC(=O)C4CC4)n[nH]c3c2)c1	78
COc1cc(N2CCN(C)CC2)ccc1Nc1ncc2c(n1)N(C)c1ccccc1C(=O)N2C	30
CCN1CCN(Cc2ccc(Nc3ncc(F)c(-c4cc(F)c5nc(C)n(C(C)C)c5c4)n3)nc2)CC1.CS(=O)(=O)O	3

Reading of Population Mitotic Cells (%) for NC(=O)c1cccc(-c2cc(Nc3ccc(OC(F)(F)F)cc3)ncn2)c1 with U2OS: 83

Entry COc1cccc2cc(-c3nc([C@H]4CC[C@H](C(=O)O)CC4)n4ncnc(N)c34)[nH]c12 , U2OS data, Population Mitotic Cells (%) value: 86

For S=C(NCCCc1c[nH]cn1)NCCCN(Cc1ccc(Cl)c(Cl)c1)c1ccc(Br)cn1 on U2OS, measured Population Mitotic Cells (%) was 2

For the compound Cc1ccc2nc(NCCN)c3ncc(C)n3c2c1.O=C(O)C(F)(F)F.O=C(O)C(F)(F)F , the measured Population Mitotic Cells (%) on U2OS was 23

The compound Cc1cn(-c2cc(NC(=O)c3ccc(C)c(Nc4nccc(-c5cccnc5)n4)c3)cc(C(F)(F)F)c2)cn1 , when measured on U2OS, yielded Population Mitotic Cells (%) of 14

The recorded Population Mitotic Cells (%) with U2OS for CN(C)C(=O)C(CCN1CCC(O)(c2ccc(Cl)cc2)CC1)(c1ccccc1)c1ccccc1.Cl [LOPERAMIDE HYDROCHLORIDE] was 7

Summary line: Cn1nc(C(F)(F)F)cc1-c1cnc(N2CCc3cc(S(=O)(=O)Nc4c(F)cc(Cl)cc4F)cc(N4CCCC4=O)c32)nc1 , U2OS, reported Population Mitotic Cells (%) = 90

Given the compound O=C(Nc1cccnn1)N1CCC(=Cc2cccc(Oc3ccc(C(F)(F)F)cn3)c2)CC1 and test system U2OS, the measured Population Mitotic Cells (%) is 66

Response field Population Mitotic Cells (%) (U2OS) for item CCn1cc(-c2ccnc3[nH]c(-c4cccc(CN(C)C)c4)cc23)c(-c2ccc(NC(=O)N(C)C)cc2)n1 : 34

Population Mitotic Cells (%) on U2OS for O=C1NC(=O)C(c2cnc3ccccn23)=C1c1cn2c3c(cc(F)cc13)CN(C(=O)N1CCCCC1)CC2 is 28

Summary line: O=C(Nc1ccc(Cl)cc1)Nc1cccc(-c2cccc(N3CCCC3)n2)c1 , U2OS, reported Population Mitotic Cells (%) = 16

Field Population Mitotic Cells (%) (U2OS), entry CCn1c(=O)c(-c2ccc(-c3cncs3)cc2Cl)cc2cnc(Nc3ccc(N4CCN(C)CC4)cc3)nc21 : 2

U2OS assay, compound CN1C2CCC1CC(OC(c1ccc(F)cc1)c1ccc(F)cc1)C2.Cl (configuration not stated) , recorded Population Mitotic Cells (%) = 37

Value sought: Population Mitotic Cells (%), system U2OS, item O=C(Nc1ccc(-c2ccnc(Nc3ccc(N4CCOCC4)cc3)n2)cc1)[C@@H]1CCCN1 . Result: 39
